Data credit: PubChem BioAssay (NCI)

Property: TGI; scope: individual compounds
Tested on: M19-MEL melanoma
assay protocol: NCI tumour cell line growth inhibition, 48 h
property measured: TGI

>>> reported_result("NC(=O)N/N=C(\\Cc1nc2ccc(C(=O)c3ccccc3)cc2[nH]c1=O)C(=O)Nc1ccc(Br)cc1")
"> 100 µM"
>>> reported_result("C[n+]1c2ccccc2c(CNC(CCC(N)=O)C(=O)O)c2ccccc21 (configuration not stated)")
"7.91 µM"
>>> reported_result("C=CCNC1=C(C(=O)OCC)C(=O)CO1")
"> 100 µM"
>>> reported_result("CCOc1ccccc1NC(=O)CCc1nnc2s/c(=C\\CCc3ccccc3)c(=O)n12")
"> 100 µM"
>>> reported_result("O=C(CSc1nnc(Cc2ccccc2)o1)Nc1ccc(Cl)cc1")
"> 100 µM"
>>> reported_result("CCOP(=O)(CC(=O)C1=C(O)C(CCCNC(=O)OC(C)(C)C)N(Cc2ccc(OC)c(OC)c2)C1=O)OCC (configuration not stated)")
"> 100 µM"
>>> reported_result("N#C/C(=C/c1cccnc1)C(=O)c1ccccc1")
"> 100 µM"
>>> reported_result("O=c1ccc2ccccc2o1")
"> 100 µM"
>>> reported_result("CCSc1nc2sc(C)c(C)c2c(=O)n1-c1ccc(C(=O)O)cc1")
"> 100 µM"
>>> reported_result("CCC(=O)OC1CCn2c1nc1c2C(=O)C(C)=C(N2CC2)C1=O (configuration not stated)")
"0.345 µM"
>>> reported_result("Cc1cc(Cc2cc(C)c(NC(=O)C(=O)C3C(=O)NC(=S)NC3=O)c(C(C)C)c2)cc(C(C)C)c1NC(=O)C(=O)C1C(=O)NC(=S)NC1=O")
"> 100 µM"
>>> reported_result("COC(=O)[C@@H]1c2cc3c(c(O)c2[C@@H](OC)C[C@@]1(C)O)C(=O)c1c(O)cc2c(c1C3=O)OC1O[C@@]2(C)[C@H](O)[C@@H](N(C)C)[C@@H]1O")
"0.88 µM"
>>> reported_result("Cc1ccc(NC(=O)CC(=O)n2nc(-c3ccccc3)c(N=Nc3ccc(Cl)cc3)c2-c2ccccc2)cc1")
"60.4 µM"
>>> reported_result("CCc1cccc(CC)c1NC(=S)NC(=O)c1ccc(Br)cc1")
"> 100 µM"
>>> reported_result("C/C(=N\\NC(=O)CC(=O)Nc1ccc(Cl)cc1)c1cc2ccccc2oc1=O")
"> 100 µM"
>>> reported_result("CC12O[C@H](c3ccccc3)[C@H](c3ccccc3)N1C(=O)C1(C(=O)OCc3ccccc3)CC12 (some centres not stated)")
"> 100 µM"
>>> reported_result("COc1ccc(NC(=O)C(=O)NNC(=O)c2sc(NNC(C)=O)nc2C)c([N+](=O)[O-])c1")
"> 100 µM"

====

Tested on: MDA-N
assay protocol: NCI tumour cell line growth inhibition, 48 h
property measured: TGI

>>> reported_result("Cc1ccc(-c2ccc(Nc3c4ccccc4nc4ccccc34)cc2)cn1")
"19.6 µM"
>>> reported_result("Oc1ccc2c(c1)OCC(O)(c1ccccc1O)C2 (configuration not stated)")
"> 100 µM"
>>> reported_result("O=[N+]([O-])c1ccc(Cl)cc1C1ON=C(c2ccccc2)N1C12CC3CC(CC(C3)C1)C2 (configuration not stated)")
"> 100 µM"
>>> reported_result("O=C(O)Cc1ccc(N2N=C(c3ccccc3)CC2=O)cc1")
"> 100 µM"
>>> reported_result("C=CC1OC(CCCOC(=O)C(C)(C)C)O[C@@H]1CC (some centres not stated)")
"> 100 µM"
>>> reported_result("COC1=CC(=O)C(O)=C(C[C@@]2(C)[C@@H]3CCC[C@H](COC(=O)CCCCCNC(=O)OC(C)(C)C)[C@@]3(C)CC[C@@H]2C)C1=O")
"> 10 µM"
>>> reported_result("O=S(=O)(O)CCS")
"> 100 µM"

====

Tested on: DMS 114 small cell lung
assay protocol: NCI tumour cell line growth inhibition, 48 h
Property: TGI; scope: individual molecules
property measured: TGI

>>> reported_result("CCOP(=O)(CC(=O)C1=C(O)C(CCCNC(=O)OC(C)(C)C)N(Cc2ccc(OC)c(OC)c2)C1=O)OCC (centres undefined)")
"> 100 µM"
>>> reported_result("NC(=O)c1[nH]nc(C2OC(CO)C(O)C2O)c1O (centres undefined)")
"858 µM"
>>> reported_result("COc1ccc(NC(=O)C(=O)NNC(=O)c2sc(NNC(C)=O)nc2C)c([N+](=O)[O-])c1")
"> 100 µM"
>>> reported_result("CCC(=O)OC1CCn2c1nc1c2C(=O)C(C)=C(N2CC2)C1=O (centres undefined)")
"0.522 µM"
>>> reported_result("Cc1cc(N(CCC#N)CCC#N)ccc1/C=C(\\NC(=O)/C=C/c1ccccc1)NC(=O)Nc1ccc(Cl)cc1")
"> 100 µM"
>>> reported_result("Cc1ccc(S(=O)(=O)N2CCC3(C(/C=C/c4ccccc4)=Nc4ccccc43)C2c2ccccc2)cc1 (centres undefined)")
"> 100 µM"
>>> reported_result("O=C([O-])c1ccc2c(c1)-c1nc-2nc2[n-]c(nc3nc(nc4[n-]c(n1)c1ccc(C(=O)[O-])cc41)-c1cc(C(=O)[O-])ccc1-3)c1ccc(C(=O)[O-])cc21.[Fe+2]")
"> 32.6 µM"
>>> reported_result("COc1cc(-c2oc3c(OC)c(OC)cc(O)c3c(=O)c2OC)ccc1O")
"> 100 µM"
>>> reported_result("COc1ccc(/C(Cl)=C(\\C=O)c2ccc(F)cc2)cc1")
"45.1 µM"
>>> reported_result("NC(=O)c1csc(C2C=CC(CO)O2)n1 (centres undefined)")
"> 100 µM"
>>> reported_result("COC(=O)[C@@H]1c2cc3c(c(O)c2[C@@H](OC)C[C@@]1(C)O)C(=O)c1c(O)cc2c(c1C3=O)OC1O[C@@]2(C)[C@H](O)[C@@H](N(C)C)[C@@H]1O")
"0.633 µM"
>>> reported_result("CC12O[C@H](c3ccccc3)[C@H](c3ccccc3)N1C(=O)C1(C(=O)OCc3ccccc3)CC12 (some centres undefined)")
"> 100 µM"
>>> reported_result("O=c1ccc2ccccc2o1")
"> 100 µM"
>>> reported_result("Cn1cc2c(n1)c(N/N=C/c1ccccc1)nn1nnnc21")
"> 100 µM"
>>> reported_result("N#C/C(=C/c1cccnc1)C(=O)c1ccccc1")
"> 100 µM"
>>> reported_result("C[n+]1c2ccccc2c(CNC(CCC(N)=O)C(=O)O)c2ccccc21 (centres undefined)")
"2.04 µM"
>>> reported_result("CCc1cccc(C(C)C)c1NC(=O)C(=O)C(C(=O)C(=O)OC)c1nc2ccccc2[nH]c1=O (centres undefined)")
"> 100 µM"
>>> reported_result("O=[N+]([O-])c1ccc(NC2OCC(O)C(O)C2O)cc1 (centres undefined)")
"> 100 µM"
>>> reported_result("CCc1cccc(CC)c1NC(=S)NC(=O)c1ccc(Br)cc1")
"> 100 µM"

====

System: SK-OV-3 ovarian
assay protocol: NCI tumour cell line growth inhibition, 48 h
Property: TGI; scope: individual compounds
property measured: TGI

>>> reported_result("Cc1nc2c(nc1C)-c1c(c3c(n1Cc1ccccc1)C(=O)CCC3)C(=O)C2=O")
"> 100 µM"
>>> reported_result("FC(F)(F)c1ccc(C=NC23CC4CC(CC(C4)C2)C3)cc1")
"> 100 µM"
>>> reported_result("COC(=O)c1ccccc1NC(=O)C(=O)CC(=O)c1ccccc1NC1=CC(=O)C(=O)c2ccccc21")
"96.1 µM"
>>> reported_result("CC(SC(=S)N1CCCCC1)C(=O)Nc1nnc(-c2ccc(Cl)cc2)o1 (stereo unspecified)")
"> 100 µM"
>>> reported_result("N#CCCC(CC#N)N1CCN(CCO)CC1 (stereo unspecified)")
"> 100 µM"
>>> reported_result("Oc1ccc2c(c1)OCC(O)(c1ccccc1O)C2 (stereo unspecified)")
"> 100 µM"
>>> reported_result("FC(F)(F)c1ccc2c(c1)nc(Cc1ccccc1)n2C[C@@H]1CCCN2CCCCC12 (stereo partly specified)")
"31.3 µM"
>>> reported_result("O=[N+]([O-])c1ccc(NC2OCC(O)C(O)C2O)cc1 (stereo unspecified)")
"> 100 µM"
>>> reported_result("CCOC(=O)CCC(C(=O)OCC)n1nc2ccc(Nc3c(C)[n+]([O-])c4cc(Cl)ccc4[n+]3[O-])cc2n1 (stereo unspecified)")
"> 100 µM"
>>> reported_result("CN1N=C2c3ccccc3CC[C@H]2C1c1ccccc1 (stereo partly specified)")
"> 100 µM"
>>> reported_result("O=C(CSc1nnc(Cc2ccccc2)o1)Nc1ccc(Cl)cc1")
"> 100 µM"
>>> reported_result("O=C(O)c1cc2ccccc2c(N=Nc2c([N+](=O)[O-])cc([N+](=O)[O-])cc2S(=O)(=O)O)c1O")
"> 100 µM"
>>> reported_result("CCCCCCCCCCCCCC/C(C(=O)OC)=C(/O)C(=O)OCC")
"> 100 µM"
>>> reported_result("COC(=O)c1ccc2n1C1CC3CC(CC2C3)C1")
"> 100 µM"
>>> reported_result("O=C1CN(c2ccc(Cl)cc2)C(=O)CN1CCN1CC(=O)N(c2ccc(Cl)cc2)CC1=O")
"> 100 µM"
>>> reported_result("COC(=O)[C@@H]1c2cc3c(c(O)c2[C@@H](OC)C[C@@]1(C)O)C(=O)c1c(O)cc2c(c1C3=O)OC1O[C@@]2(C)[C@H](O)[C@@H](N(C)C)[C@@H]1O")
"3.94 µM"
>>> reported_result("O=C1C(Cl)=C(Nc2ccc3cn[nH]c3c2)C(=O)c2ccccc21")
"24.3 µM"
>>> reported_result("CCOc1ccccc1NC(=O)CCc1nnc2s/c(=C\\CCc3ccccc3)c(=O)n12")
"> 100 µM"
>>> reported_result("O=[N+]([O-])c1ccc(Cl)cc1C1ON=C(c2ccccc2)N1C12CC3CC(CC(C3)C1)C2 (stereo unspecified)")
"> 100 µM"
>>> reported_result("N=c1c2c3n(c4c(=O)n(-c5ccccc5)c(=S)n(c(=O)n1-c1ccccc1)c24)CCCCC3")
"> 100 µM"
>>> reported_result("C#CC(O)/C=C/CCCCCCC#CC/C=C\\CC#CCCCCCC/C=C/C(O)C#C (stereo unspecified)")
"32.1 µM"
